# System: SK-MEL-5
# method-summary: Growth inhibition of human SK-MEL-5 cells at 10 uM after 48 hrs by SRB assay relative to control
# Type: functional
# conditions-used: SK-MEL-5, 48 h, read-out: GI
Returns yes if the recorded inhibition of growth at 10 µM is greater than or equal to 50%, and no otherwise.

1. COc1cc2oc(-c3cccc(C(=O)Nc4ccccc4)c3)cc(=O)c2c(OC)c1OC | no

Qu. Say whether `COc1cc2oc(-c3cccc(C(=O)Nc4ccc5c(c4)OCO5)c3)cc(=O)c2c(O)c1OC` shows inhibition of growth at 10 µM of 50% or more.
Ans. no

Qu. Say whether `COc1cccc(C(=O)Nc2cccc(-c3cc(=O)c4c(OC)c(OC)c(OC)cc4o3)c2)c1` shows inhibition of growth at 10 µM of 50% or more.
Ans. no

Qu. Say whether `COc1ccccc1C(=O)Nc1cccc(-c2cc(=O)c3c(OC)c(OC)c(OC)cc3o2)c1` shows inhibition of growth at 10 µM of 50% or more.
Ans. yes
